test system: A498 renal; assay: NCI-60 one-dose screen, 48 h; details: 10 µM unless noted
This is part of a sample that, as a whole, favours compounds with a hit. Of some 83,000 tested, about 20% had one in any assay. The source made the active and inactive calls. Rule for the calls: active = growth percent below 10; inactive = the rest.
Choose the fitting class; nothing outside Yes = active, No = inactive is accepted.

compound	label-class
O=C1/C(=C/c2ccc(Cl)c(Cl)c2)CN(C(=O)C(Cl)Cl)C/C1=C\c1ccc(Cl)c(Cl)c1	Yes

Shifting focus to the compound that follows.
### Prompt Assay result, entry CC(O)c1cnc(/C=C2\SC(=S)N(Cc3ccccc3)C2=O)s1 (stereo unspecified) — outcome?
### Response No
